Reference source for all entries: the supplement of paper PMC7125110

B1: glmS ribozyme (parent)
chain: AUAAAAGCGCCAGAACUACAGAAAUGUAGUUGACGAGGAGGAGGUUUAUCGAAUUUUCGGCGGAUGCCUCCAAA

variants of: B1; test: self-cleavage kobs at 640 uM GlcN6P; higher = faster cleavage; RNA array; conditions: with glucosamine-6-phosphate
This sample holds only a part of the variants without activity.
measured_parameter: self-cleavage kobs at 640 uM GlcN6P

Some solved cases for reference:
sequence_text="AUAAAAGAGCCAGAAAUACAGAAAUGUAGUUCACGAGGAGGGGGUUUAUCGAAUUUUCGGCGGAUGCCUCCAAA [C8A C16A G32C A42G]" measured_value="< 1e-05 s⁻¹"
sequence_text="AUAAAAGCGCCAGAACUACAGAAAUGUAGUUGAGGAGGAGGAGGUUUAUCGAAAUUUCGGCGGAUGCCUCCAAA [C34G U54A]" measured_value="< 1e-05 s⁻¹"

# context switch: different variant, same self-cleavage kobs at 640 uM GlcN6P
Given the entry AUAAAAGCGCCAGACUACAAGAAAUGUAGUUGACGGGGAGGAGUUUUAUCGAAUUUUCGGCGGAUGCCUCCAAA [A15C C16U U17A A18C C19A A36G G44U] , report its measured self-cleavage kobs at 640 uM GlcN6P.
< 1e-05 s⁻¹
